# Tested on: Hepatocyte
# assay: Cytotoxicity against human hepatocytes assessed as cell viability up to 50 uM after 90 mins by MTT assay
# Type: cell-based
# condition.label: 1.5 h
quantity.name: Activity

Cc1c(C)c2c(c(C)c1OC(=O)CCCCCCCNC(=O)OC(C)(C)C)CCC(C)(COc1ccc(/C=C3\SC(=O)NC3=O)cc1)O2 (racemic) = Non-toxic
Cc1cc(C)c2c(c1C)OC(C)(COc1ccc(/C=C3\SC(=O)NC3=O)cc1)CC2 (racemic) = Non-toxic
Cc1c(C)c2c(c(C)c1O)CCC(C)(COc1ccc(CC3SC(=O)NC3=O)cc1)O2 (centres undefined) = Non-toxic
Cc1c(C)c2c(c(C)c1O)CCC(C)(COc1ccc(/C=C3\SC(=O)NC3=O)cc1)O2 (racemic) = Non-toxic

----------
// reported viability at 1.5 h, 100 µM per item
# assay: Cytotoxicity against human hepatocytes assessed as cell viability at 100 uM after 90 mins by MTT assay relative to control
# Assay type: cell-based, Hepatocyte
# condition.label: read-out: Activity
Report as a plain number; the unit % is understood.

Example cases with answers are listed next.
Cc1c(C)c2c(c(C)c1OC(=O)CCCC[C@@H]1SC[C@@H]3NC(=O)N[C@@H]31)CCC(C)(COc1ccc(/C=C3\SC(=O)NC3=O)cc1)O2 (mixture of isomers) = 66
Cc1c(C)c2c(c(C)c1OC(=O)CCCCCCCN)CCC(C)(COc1ccc(/C=C3\SC(=O)NC3=O)cc1)O2 (racemic) = 57

// moving on: another record for viability at 1.5 h, 100 µM
Looking up Cc1c(C)c2c(c(C)c1OC(=O)CCCC[C@@H]1SC[C@@H]3NC(=O)N[C@@H]31)CCC(C)(COc1ccc(CC3SC(=O)NC3=O)cc1)O2 (mixture of isomers) , I found its viability at 1.5 h, 100 µM recorded as 50

----------
Readings of IC50 for the listed compounds
# System: MCF7
# assay: Antiproliferative activity hormone-dependent human MCF7 cells after 24 hrs by luminescent cell viability assay
# Assay type: functional, cell-based
# condition.label: MCF7, 24 h

Recorded IC50, per entry:
Cc1cc(C)c2c(c1C)OC(C)(COc1ccc(/C=C3\SC(=O)NC3=O)cc1)CC2 (racemic) = 12.5 µM
Cc1c(C)c2c(c(C)c1OC(=O)CCCC[C@@H]1SC[C@@H]3NC(=O)N[C@@H]31)CCC(C)(COc1ccc(CC3SC(=O)NC3=O)cc1)O2 (mixture of isomers) = 15.9 µM
Cc1c(C)c2c(c(C)c1O)CCC(C)(COc1ccc(/C=C3\SC(=O)NC3=O)cc1)O2 (racemic) = 29.7 µM
Cc1c(C)c2c(c(C)c1OC(=O)CCCCCCCN)CCC(C)(COc1ccc(/C=C3\SC(=O)NC3=O)cc1)O2 (racemic) = 3.2 µM

Cc1c(C)c2c(c(C)c1O)CCC(C)(COc1ccc(CC3SC(=O)NC3=O)cc1)O2 (centres undefined) [TROGLITAZONE] yielded IC50 of 35.4 µM

The compound Cc1c(C)c2c(c(C)c1OC(=O)OC(C)(C)C)CCC(C)(COc1ccc(/C=C3\SC(=O)NC3=O)cc1)O2 (racemic) showed IC50 equal to 7.7 µM

Record Cc1cc(C)c2c(c1C)OC(C)(COc1ccc(CC3SC(=O)NC3=O)cc1)CC2 (racemic) . Reported IC50: 20 µM

IC50 reading for CC(=O)NCCNC(=O)CCC(=O)Oc1c(C)c(C)c2c(c1C)CCC(C)(COc1ccc(/C=C3\SC(=O)NC3=O)cc1)O2 (racemic) : > 50 µM

Per the record, Cc1c(C)c2c(c(C)c1OC(=O)CCCC[C@@H]1SC[C@@H]3NC(=O)N[C@@H]31)CCC(C)(COc1ccc(/C=C3\SC(=O)NC3=O)cc1)O2 (mixture of isomers) has IC50 of 11.2 µM

In plain terms, Cc1c(C)c2c(c(C)c1OC(=O)CCCCCCCNC(=O)CCCC[C@@H]1SC[C@@H]3NC(=O)N[C@@H]31)CCC(C)(COc1ccc(/C=C3\SC(=O)NC3=O)cc1)O2 (some centres undefined) has a documented IC50 of 26 µM

Lookup result for Cc1c(C)c2c(c(C)c1OC(=O)OC(C)(C)C)CCC(C)(COc1ccc(CC3SC(=O)NC3=O)cc1)O2 (racemic) ; measured IC50: 11.2 µM

# compound Cc1c(C)c2c(c(C)c1OC(=O)CCC(=O)O)CCC(C)(COc1ccc(CC3SC(=O)NC3=O)cc1)O2 (racemic) ; its IC50 = > 50 µM

Summary for this compound, Cc1c(C)c2c(c(C)c1OC(=O)CCCCCCCNC(=O)OC(C)(C)C)CCC(C)(COc1ccc(/C=C3\SC(=O)NC3=O)cc1)O2 (racemic) : IC50 is 13 µM

Measured IC50 of Cc1c(C)c2c(c(C)c1OC(=O)CCC(=O)O)CCC(C)(COc1ccc(/C=C3\SC(=O)NC3=O)cc1)O2 (racemic) : > 50 µM
